Test system: ACHN renal
Experiment: NCI-60 one-dose screen, 48 h (100 = growth as untreated, 0 = no growth, -100 = all killed)
Conditions: 10 µM unless noted
The panel holds about 83,000 compounds, 20% with a hit somewhere; the sample as a whole holds those more often.
measurement kind: growth (%)

                                    molecule  measurement
 0  CCCCCCNC(=O)Oc1ccc(/C(=C(\C)c2ccc(OC)cc2)c2ccc(OCCN3CCCCC3)cc2)cc1         84.2
 1  O=C1CCC/C=C\C[C@H]2C=CC(=O)/C2=C/C[C@H](CCc2cccc(C(F)(F)F)c2)O1        -85.1
 2  CCOC(=O)Cn1c(=O)c2c(c3ccccc3n2C)n2nnc(-c3ccccc3)c12         97.3
 3  N#CC1=C(N)Oc2c(sc3c(Br)cccc23)C1c1ccc(Br)cc1 (centres undefined)           56
 4           CNCCCC12CCC(c3ccccc31)c1ccccc12         80.6
 5  COc1cccc(-c2nc(-c3ccc(NC(=O)OC(C)C)cc3)[nH]c2-c2ccnc(Br)c2)c1         14.5
 6  CNC(C)[C@H]1CCC2C3CCC4C[C@@H](N(C)C(=O)c5ccccc5)CC[C@]4(C)C3CC[C@@]21C (some centres undefined)         46.9
 7      O=C1/C(=C/c2ccc(F)cc2)Sc2c(Br)cccc21         76.5
 8  O=C1CSC(c2c(Cl)cccc2Cl)N1c1nc(Cl)cc(=O)[nH]1 (centres undefined)          111
 9  COC(=O)Nc1ccc(-c2nc(-c3cccc(OC)c3)c(-c3ccnc(Br)c3)[nH]2)cc1         53.4
10    NCCCNc1nc2ccccc2c2c(=O)c3cccc(F)c3sc12         8.21
11      COc1ccc(CN2c3ccccc3Sc3ccccc32)c(F)c1         43.4
12  Cc1cc(O)c(C2=NN(c3ccc(S(N)(=O)=O)cc3)C(c3ccccc3O)C2)cc1Cl (centres undefined)         7.54
13        Cc1nc2nc(SCC(=O)O)[nH]c2c(=O)[nH]1          110

* * *

Test system: NCI-H322M lung
Assay: NCI-60 one-dose screen, 48 h (100 = growth as untreated, 0 = no growth, -100 = all killed)
Conditions: 10 µM unless noted
This is part of a sample that, as a whole, favours compounds with a hit. Of some 83,000 tested, about 20% had one in any assay.
Entries and their growth values follow.
measurement kind: growth (%)

>>> df
                                   compound  measurement
0        Nc1nc2ccccc2c2c(=O)c3cc(F)ccc3sc12         99.2
1  COc1ccc(-c2nc(NN)c3c(C)nn(-c4ccc(F)cc4)c3n2)cc1         74.6
2  CCc1cccc2c3c(sc12)C(c1ccc(Cl)cc1)C(C#N)=C(N)O3 (configuration not stated)         49.6
3  O=C(N=c1oc2ccccc2cc1-c1cc2ccccc2[nH]1)Nc1ccc(Cl)cc1         87.8
4     COc1ccc(-c2nc(NCCO)[nH]c(=O)c2C#N)cc1         95.8
5  COc1c(B(O)O)cc(C)cc1-c1nc2ccc3[nH]ncc3c2c2c1CCCC2          106
6  CCOC(=O)/C=C1\S/C(=N\Nc2ccc([N+](=O)[O-])cc2[N+](=O)[O-])N(Cc2ccccc2)C1=O         97.9

* * *

Test system: HT29 colon
Experiment: NCI-60 one-dose screen, 48 h (100 = growth as untreated, 0 = no growth, -100 = all killed)
Conditions: 10 µM unless noted
Compounds without any hit were thinned out: in the full panel of roughly 83,000, 20% have a hit.
Classify by measured growth: label 1 if it is equal to or exceeds 80%, label 0 if it is smaller.

In [3]: df
Out[3]:
                                    molecule      cat
 0  Cc1ccc(NC2=C(Cl)C(=O)c3nc(C)ccc3C2=O)cc1  label 1
 1  COc1cc(C(=O)c2cc(C)c3[nH]c4ccc(O)cc4c3c2C)cc(OC)c1OC  label 0
 2  O=C(N/N=C/[C@H](O)[C@@H](O)[C@@H](O)[C@H](O)CO)c1ccc(NC(=O)c2cccnc2)cc1  label 1
 3    Cc1ccc2sc3c(NCCCN)nc4ccccc4c3c(=O)c2c1  label 0
 4  CCOC(=O)/C=C1\S/C(=N\Nc2ccc([N+](=O)[O-])cc2[N+](=O)[O-])N(Cc2ccccc2)C1=O  label 1
 5  Cc1ccc(C(=O)N/N=C/c2cccc(Oc3ccccc3)c2)cn1  label 0
 6  CNC(=O)c1[nH]cc(-c2ccccc2)c1-c1cc(OC)c2c(c1OC)OCO2  label 1
 7  CCCCCCn1c(-c2ccc(C(=O)O/N=C(\N)c3ccc(OC)cc3)cc2)nc(-c2ccccc2)c1-c1ccccc1  label 0
 8  COc1ccc(S(=O)(=O)n2c3ccccc3n3ncc(-c4nnc(C)o4)c23)cc1  label 0
 9  CN(C)CCNc1nc2ccccc2c2c(=O)c3cc(F)ccc3sc12  label 0
10     Cc1ccc(/C=C(\C#N)n2nc3cccc(F)c3n2)cc1  label 1
11  O=C(CCCCCCSc1nc(-c2ccccc2)cc(-c2ccccc2)n1)NO  label 0
12  C=C(C)C1CCC2(C)OC2C1 (configuration not stated)  label 1
13  CN1CCN(CC(=O)N2c3cccc4cccc(c34)N(C(=O)CN3CCN(C)CC3)C2c2cn(-c3ccccc3)nc2-c2cccc([N+](=O)[O-])c2)CC1  label 0
14  CCc1ccc(Oc2c(-c3ccc(OCc4ccc(Cl)cc4)cc3O)n[nH]c2C(F)(F)F)cc1  label 1
15  O=C1/C(=C/c2ccccc2[N+](=O)[O-])Oc2ccc(O)c(O)c21  label 0
16  Cc1nn(-c2ccccc2)c(-n2ccnc2)c1/C=N/Nc1nc(-c2ccc(Cl)c(Cl)c2)cs1  label 0

* * *

Tested on: NCI-H226 lung
Experiment: NCI-60 one-dose screen, 48 h
Details: 10 µM unless noted
This is part of a sample that, as a whole, favours compounds with a hit. Of some 83,000 tested, about 20% had one in any assay. Calls of active or inactive are those of the source. Rule for the calls: active = growth percent below 10; inactive = the rest.
Classes used: y = active, n = inactive

>>> print(df.to_string())
                                   compound  cat
0              O=C(Nc1ccc(Cl)cc1F)c1ccccc1O    n
1  CC1=C([Se]CC(OC(=O)[C@@H](CSSC(C)(C)C)NC(=O)OC(C)(C)C)C(=O)NC(C)(C)C)C(=O)c2ccccc2C1=O (some centres not stated)    y
2  O=c1c2cc(F)cc(Cl)c2sc2c(NCCCNCCO)nc3ccccc3c12    n
3  O=C1c2cccc3cccc(c23)C(=O)N1N1C(=O)c2cccc3c(NC4CCCCC4)ccc(c23)C1=O    n
4  Cc1c(C(=O)NCCN2CCOCC2)cn2ncnc(Oc3ccc(NC(=O)Nc4ccc(Cl)c(C(F)(F)F)c4)cc3)c12    n
5  CC1=C(C)C(=O)C(Nc2cccc(C(=O)OC(C)(C)C)c2)=C(Br)C1=O    n
6  CCOC(=O)/C=C1\S/C(=N\Nc2ccc([N+](=O)[O-])cc2[N+](=O)[O-])N(Cc2ccccc2)C1=O    n

* * *

System: MDA-MB-435 melanoma
Test: NCI-60 one-dose screen, 48 h
Settings: 10 µM unless noted
This is part of a sample that, as a whole, favours compounds with a hit. Of some 83,000 tested, about 20% had one in any assay. Calls of active or inactive are those of the source. How the source made its calls: active means growth percent below 10; inactive means the rest.
Possible outcomes: active, inactive

                                    compound       cat
 0           Oc1ccc(Cl)cc1Cc1cc(Cl)cc(Cl)c1O  inactive
 1  COc1nc2ccccc2cc1-c1nc2c(cnn2-c2ccc(Br)cc2)c(=O)[nH]1    active
 2  CCOC(=O)c1c(C)nc2c(c1N)CC(=O)N2Cc1ccc(F)cc1  inactive
 3  COc1ccc(-c2cc(-c3cc(OC)c(OC)c(OC)c3)nc(N3CCOCC3)c2C#N)cc1  inactive
 4  COc1cc(C(=O)/C=C/c2sc(Cl)nc2Cl)cc(OC)c1OC  inactive
 5           Nc1cc2c(cc1Br)-c1cc(Cl)ccc1C2=O  inactive
 6  CCN(CC)c1ccc(C2=NN(C(C)=O)C(c3cc(OC)c(OC)c(OC)c3)C2)cc1 (stereo unspecified)    active
 7  Cc1ccc(-c2nn(C)c(=O)c3noc(-c4ccc(C)cc4)c23)cc1    active
 8  O=C(Nn1c(NCC(=O)N2c3ccccc3Sc3ccccc32)nnc1-c1ccc(O)cc1)c1ccccc1  inactive
 9  COc1ccc(OC)c(/C=C/C(=O)N/N=C/c2ccc(Cl)cc2)c1    active
10  COc1cccc(/C=C2\C=C(c3ccccc3)N(Cc3ccccc3)C2=O)c1    active
11  N#Cc1c(Nc2cccc(Cl)c2)sc(C(=O)c2cc3cc(Cl)ccc3o2)c1N  inactive
12  COc1cc(C(=O)N2N=C(c3ccc(S(C)(=O)=O)cc3)CC2c2ccco2)cc(OC)c1OC (stereo unspecified)    active
13  COc1ccc(C(Cc2ccccc2)NCCN2CCOCC2)cc1 (stereo unspecified)  inactive
14  COc1ccc(CNC(=O)C(=O)[C@H](Cc2ccccc2)NC(=O)c2[nH]c3ccccc3c(=O)c2C)cc1  inactive
15  Cc1ccc(-c2nc(N3CCN(C(=O)Nc4ccc(Cl)c(C(F)(F)F)c4)CC3)c3ccccc3n2)cc1  inactive
16  O=c1ccn(Cc2cn(-c3c4ccccc4nc4ccccc34)nn2)c(=O)[nH]1  inactive
17  CN1CCN(c2ccc(-c3cc4c(Nc5ccc(F)c(Cl)c5)ncnn4c3)cn2)CC1  inactive
18  CN1CCN(CC(=O)N2c3cccc4cccc(c34)N(C(=O)CN3CCN(C)CC3)C2c2cn(-c3ccccc3)nc2-c2cccc([N+](=O)[O-])c2)CC1    active
19  CNc1nc2c(s1)C(c1cccc(F)c1)CC(=O)N2 (stereo unspecified)  inactive
20  O=C1CCC(C(=O)NCCNCCNC(=O)C2CCC(=O)N2)N1 (stereo unspecified)  inactive
